target.or.system: murine IDO (Mus musculus, UniProt P28776)
Construct: expressed in transfected cells; host or cells: 293-T-REx cells (Invitrogen), doxycycline-inducible CMV-tet promoter
Sequence (P28776 whole entry): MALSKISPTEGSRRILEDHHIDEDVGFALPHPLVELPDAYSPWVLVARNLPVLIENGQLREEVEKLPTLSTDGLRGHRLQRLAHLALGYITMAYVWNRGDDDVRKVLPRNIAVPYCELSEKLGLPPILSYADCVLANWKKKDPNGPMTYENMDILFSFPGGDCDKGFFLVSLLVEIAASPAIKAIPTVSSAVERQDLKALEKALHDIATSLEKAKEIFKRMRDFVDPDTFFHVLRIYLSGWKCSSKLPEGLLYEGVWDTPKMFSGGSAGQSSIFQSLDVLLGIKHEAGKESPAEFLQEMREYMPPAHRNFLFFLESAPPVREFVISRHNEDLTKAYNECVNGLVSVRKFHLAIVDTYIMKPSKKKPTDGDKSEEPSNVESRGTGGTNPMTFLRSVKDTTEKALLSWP
test: Cell based IDO/kynurenine assay in 293-T-Rex cells expressing murine IDO
assay.context: Table 15; cells expressing murine IDO; read-out: mIDO EC50
pEC50: −log10 of the molar value.
measured.metric: pEC50

What value of pEC50 on murine IDO (Mus musculus, UniProt P28776) does NOCc1cccnc1 [compound 1738, O-(pyridin-3-ylmethyl)hydroxylamine] have?
4.00 to 5.00

What value of pEC50 on murine IDO (Mus musculus, UniProt P28776) does NOCc1cccc(NCc2ccccc2)c1 [compound 1872, 3-(aminooxymethyl)-N-benzylaniline] have?
> 5.00

What value of pEC50 on murine IDO (Mus musculus, UniProt P28776) does NOCc1ccccc1Nc1ccccc1 have?
4.00 to 5.00

What value of pEC50 on murine IDO (Mus musculus, UniProt P28776) does NOCc1cccc(-c2ccc(Cl)cc2)c1 have?
4.00 to 5.00

What value of pEC50 on murine IDO (Mus musculus, UniProt P28776) does COc1ccc(-c2cccc(CON)c2)cc1 have?
4.00 to 5.00

What value of pEC50 on murine IDO (Mus musculus, UniProt P28776) does NOCc1cc(Cl)ccc1-c1cncnc1 have?
> 5.00

What value of pEC50 on murine IDO (Mus musculus, UniProt P28776) does NOCc1cc(Cl)ccc1-c1ccc(Cl)c(Cl)c1 have?
4.00 to 5.00

What value of pEC50 on murine IDO (Mus musculus, UniProt P28776) does NOCC1CCc2ccccc2O1 (centres unmarked) [compound 1768, O-(chroman-2-ylmethyl)hydroxylamine] have?
> 5.00
